Data provenance: patent US20140148454A1

# test_system: KCNQ2/3 channels (Homo sapiens, UniProt O43525+O43526)
# Construct: expressed in transfected cells; host or cells: CHO-K1 cells kept under selection antibiotics
# procedure_details: Fluorescence assay using a voltage sensitive dye (fluorimetry)
# Assay type: cell-based
# conditions_used: CHO-K1 cells expressing KCNQ2/3 channels; relative to retigabine = 100%; read-out: Fluorimetry % efficacy (retigabine = 100%)
metric_name: Emax (%)
Give the value in % but do not write % after it.

Record excerpt, results attached:
molecule | result_unit | result
CCSc1cc(N2CCOC[C@H]2C)nc(C)c1C(=O)NCc1ccc(Cl)cc1 | % | 176
CCSc1nc(N2CCOCC2)nc(C)c1C(=O)NCc1ccc(Cl)cc1 | % | 137
CCCc1cc(N2CCOCC2)nc(C)c1C(=O)NCc1ccc(Cl)cc1 | % | 187

The measured Emax associated with CC(C)c1nc(N2CCOCC2)cnc1C(=O)NCc1ccc(Cl)cc1 reads 109

The measured Emax associated with CCSc1cc(N2CCOCC2)nc(C)c1C(=O)NCc1ccc(F)cc1 reads 145

The measured Emax associated with CN(c1nc(C(F)(F)F)c(C(=O)NCc2cccc(OC(F)(F)F)c2)s1)C1CCOCC1 reads 125

The measured Emax associated with CCC(C)c1nc(N2CCOCC2)cnc1C(=O)NCCC1CCCC1 (centres unmarked) reads 132

The measured Emax associated with CC(C)c1nc(N(C)C2CCOCC2)sc1C(=O)NCc1ccc(Cl)cc1 reads 98
